Catalogue of molecules with associated IC50
Molecular target: Serine/threonine-protein kinase Chk2 (Homo sapiens, UniProt O96017)
Sequence (O96017 whole entry): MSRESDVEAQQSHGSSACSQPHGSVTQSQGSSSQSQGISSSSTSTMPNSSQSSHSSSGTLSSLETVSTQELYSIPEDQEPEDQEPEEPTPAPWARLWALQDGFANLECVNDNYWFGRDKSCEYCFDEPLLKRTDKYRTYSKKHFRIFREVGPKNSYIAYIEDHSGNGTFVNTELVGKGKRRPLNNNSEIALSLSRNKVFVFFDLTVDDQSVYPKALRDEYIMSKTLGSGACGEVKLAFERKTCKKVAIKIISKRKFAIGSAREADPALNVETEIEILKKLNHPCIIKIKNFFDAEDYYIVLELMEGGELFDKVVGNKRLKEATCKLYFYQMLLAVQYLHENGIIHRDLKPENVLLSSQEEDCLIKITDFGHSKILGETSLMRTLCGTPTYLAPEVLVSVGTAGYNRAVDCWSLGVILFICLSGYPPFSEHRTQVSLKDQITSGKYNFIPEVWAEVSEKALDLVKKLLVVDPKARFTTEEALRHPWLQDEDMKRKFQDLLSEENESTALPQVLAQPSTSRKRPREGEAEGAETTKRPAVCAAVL
A number alone suffices; assume µM.

Worked examples, 2 molecules total:
{"Molecular string": "Cc1csc2nc(-c3cccnc3)c(/C=N/NC(=N)N)n12", "IC50 (µM)": 34.3}
{"Molecular string": "N=C(N)N/N=C/c1c(-c2cc(Cl)sc2Cl)nc2sccn12", "IC50 (µM)": 65}

# input for lookup
stdin: Look up IC50 for this molecule: Cl.N=C(N)N/N=C/c1c(-c2ccc(Cl)c([N+](=O)[O-])c2)nc2sc(Cl)cn12
stdout: 90

---

Target sequence: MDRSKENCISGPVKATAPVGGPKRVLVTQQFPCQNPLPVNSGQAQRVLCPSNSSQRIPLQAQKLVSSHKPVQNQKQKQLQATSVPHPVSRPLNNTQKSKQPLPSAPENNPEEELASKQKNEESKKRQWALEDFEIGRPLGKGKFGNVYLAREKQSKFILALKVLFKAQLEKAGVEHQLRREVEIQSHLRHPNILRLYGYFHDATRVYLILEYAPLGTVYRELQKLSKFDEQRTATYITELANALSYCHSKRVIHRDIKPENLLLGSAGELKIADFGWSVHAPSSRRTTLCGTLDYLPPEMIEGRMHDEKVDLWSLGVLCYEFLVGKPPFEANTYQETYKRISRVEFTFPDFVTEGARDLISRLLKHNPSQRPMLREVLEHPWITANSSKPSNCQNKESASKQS
Quantity: IC50

stdin: Look up IC50 for this molecule: N=C(N)N/N=C\c1c(-c2ccc([N+](=O)[O-])cc2)nc2sc(Br)cn12
stdout: > 20 µM

---

Catalogue of compounds with associated IC50
Biological target: Ribosomal protein S6 kinase alpha-3 (Homo sapiens, UniProt P51812)
Sequence (P51812 whole entry): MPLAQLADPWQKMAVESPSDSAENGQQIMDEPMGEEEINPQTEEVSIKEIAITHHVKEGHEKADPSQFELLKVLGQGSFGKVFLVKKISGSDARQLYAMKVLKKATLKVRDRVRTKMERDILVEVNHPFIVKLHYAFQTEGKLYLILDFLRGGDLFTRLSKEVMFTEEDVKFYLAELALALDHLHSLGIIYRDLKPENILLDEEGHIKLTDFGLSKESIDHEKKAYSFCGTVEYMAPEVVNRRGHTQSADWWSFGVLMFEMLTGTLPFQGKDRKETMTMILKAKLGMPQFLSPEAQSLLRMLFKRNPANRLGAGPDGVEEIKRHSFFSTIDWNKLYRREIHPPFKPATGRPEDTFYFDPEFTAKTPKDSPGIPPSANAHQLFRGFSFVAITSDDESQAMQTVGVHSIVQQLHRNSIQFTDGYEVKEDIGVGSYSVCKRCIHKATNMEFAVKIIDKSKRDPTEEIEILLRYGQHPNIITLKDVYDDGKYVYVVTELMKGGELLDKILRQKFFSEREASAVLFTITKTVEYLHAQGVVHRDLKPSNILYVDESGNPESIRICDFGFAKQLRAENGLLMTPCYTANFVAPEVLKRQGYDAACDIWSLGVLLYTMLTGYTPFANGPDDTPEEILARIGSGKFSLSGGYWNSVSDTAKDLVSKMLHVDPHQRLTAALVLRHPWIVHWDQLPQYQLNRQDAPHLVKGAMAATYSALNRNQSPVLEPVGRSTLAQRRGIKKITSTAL
A number alone suffices; assume µM.

Worked examples, 5 compounds total:
{"Molecular string": "N=C(N)N/N=C/c1c(-c2ccc(F)cc2)nc2sc(Cl)cn12", "Quantity": "IC50", "Result value": 86}
{"Molecular string": "N=C(N)N/N=C/c1c(-c2cc([N+](=O)[O-])c(Cl)cc2Cl)nc2sccn12", "Quantity": "IC50", "Result value": 5.93}
{"Molecular string": "N=C(N)N/N=C/c1c(-c2cc(Cl)sc2Cl)nc2sccn12", "Quantity": "IC50", "Result value": 79}
{"Molecular string": "Cc1csc2nc(-c3cccnc3)c(/C=N/NC(=N)N)n12", "Quantity": "IC50", "Result value": 100}
{"Molecular string": "N=C(N)N/N=C\\c1c(-c2ccc([N+](=O)[O-])cc2)nc2sc(Br)cn12", "Quantity": "IC50", "Result value": 1.23}

stdin: Look up IC50 for this compound: COc1cc([N+](=O)[O-])c(OC)cc1-c1nc2sc(Cl)cn2c1/C=N/NC(=N)N/N=C/c1c(-c2cc(OC)c([N+](=O)[O-])cc2OC)nc2sc(Cl)cn12
stdout: 11.4

---

System: MCF-10A
Assay: Antiproliferative activity against human MCF10A cells assessed as reduction in cell viability after 48 hrs celltiter glo assay
Type: cell-based
Quantity: Activity

{"Molecular string": "Cl.N=C(N)N/N=C/c1c(-c2ccc(Cl)c([N+](=O)[O-])c2)nc2sc(Cl)cn12", "Result value": "Non-toxic"}
{"Molecular string": "Cl.N=C(N)N/N=C/c1c(-c2ccc(Cl)c([N+](=O)[O-])c2)nc2sccn12", "Result value": "Non-toxic"}
{"Molecular string": "Cl.N=C(N)N/N=C\\c1c(-c2ccc([N+](=O)[O-])cc2)nc2sc(F)cn12", "Result value": "Non-toxic"}
{"Molecular string": "Cc1cn2c(/C=N/NC(=N)N)c(-c3ccc([N+](=O)[O-])cc3)nc2s1.Cl", "Result value": "Toxic"}

---

Biological target: Aurora kinase A (Homo sapiens)
Assay: Inhibition of Aurora kinase A assessed as inhibition of substrate phosphorylation using fluorescent peptide substrate up to 100 uM by microplate reader assay
Active and inactive are the calls of the source.
Quantity: inhibition

Worked examples, 5 molecules total:
{"Molecular string": "Clc1cc(-c2cn3c(n2)sc2ccccc23)c(Cl)s1", "Result value": "inactive"}
{"Molecular string": "O=Cc1c(-c2ccc(F)c([N+](=O)[O-])c2)nc2sc(Cl)cn12", "Result value": "inactive"}
{"Molecular string": "N=C(N)N/N=C/c1c(-c2ccc([N+](=O)[O-])cc2)nc2sc(Cl)cn12", "Result value": "50%"}
{"Molecular string": "Cc1cn2cc(-c3ccc(F)cc3)nc2s1", "Result value": "inactive"}
{"Molecular string": "COc1cc([N+](=O)[O-])c(OC)cc1-c1cn2ccccc2n1", "Result value": "inactive"}

stdin: Look up inhibition for this molecule: O=Cc1c(-c2cc(Cl)sc2Cl)nc2sc(Cl)cn12
stdout: inactive

---

Target: Ribosomal protein S6 kinase alpha-3 (Homo sapiens)
pIC50: −log10 of the molar value.
Parameter threshold = 5. Response is true (1) when pIC50 meets or exceeds it, else false (0).

{"Molecular string": "Cc1sc2nc(-c3cccnc3)c(/C=N/NC(=N)N)n2c1C", "Label value": "false (0)"}
{"Molecular string": "Cc1nn2c(/C=N/NC3=NCCN3)c(-c3ccc(Cl)c([N+](=O)[O-])c3)nc2s1", "Label value": "false (0)"}
{"Molecular string": "N=C(N)N/N=C\\c1c(-c2ccc(F)cc2)nc2sccn12", "Label value": "false (0)"}
{"Molecular string": "Cl.N=C(N)N/N=C/c1c(-c2ccc(Cl)c([N+](=O)[O-])c2)nc2sccn12", "Label value": "true (1)"}
{"Molecular string": "N=C(N)N/N=C\\c1c(-c2cccc(C(F)(F)F)c2)nc2sccn12", "Label value": "false (0)"}

Continue with the next compound.
stdin: State whether the measured pIC50 reaches 5, counting equality as reaching it, for N=C(N)N/N=C\c1c(-c2ccc(F)c([N+](=O)[O-])c2)nc2sccn12
stdout: false (0)

---

Target: Serine/threonine-protein kinase Chk2 (Homo sapiens, UniProt O96017)
Quantity: pIC50
Units for pIC50: none; it is -log10 of a concentration expressed in mol/L.

stdin: Form entry - test system: Serine/threonine-protein kinase Chk2 (Homo sapiens, UniProt O96017); read-out: pIC50; molecule: N=C(N)N/N=C\c1c(-c2ccc([N+](=O)[O-])cc2)nc2sc(Br)cn12
stdout: 5.71

---

Biological target: Ribosomal protein S6 kinase alpha-1 (Homo sapiens, UniProt Q15418)
Sequence (Q15418 whole entry): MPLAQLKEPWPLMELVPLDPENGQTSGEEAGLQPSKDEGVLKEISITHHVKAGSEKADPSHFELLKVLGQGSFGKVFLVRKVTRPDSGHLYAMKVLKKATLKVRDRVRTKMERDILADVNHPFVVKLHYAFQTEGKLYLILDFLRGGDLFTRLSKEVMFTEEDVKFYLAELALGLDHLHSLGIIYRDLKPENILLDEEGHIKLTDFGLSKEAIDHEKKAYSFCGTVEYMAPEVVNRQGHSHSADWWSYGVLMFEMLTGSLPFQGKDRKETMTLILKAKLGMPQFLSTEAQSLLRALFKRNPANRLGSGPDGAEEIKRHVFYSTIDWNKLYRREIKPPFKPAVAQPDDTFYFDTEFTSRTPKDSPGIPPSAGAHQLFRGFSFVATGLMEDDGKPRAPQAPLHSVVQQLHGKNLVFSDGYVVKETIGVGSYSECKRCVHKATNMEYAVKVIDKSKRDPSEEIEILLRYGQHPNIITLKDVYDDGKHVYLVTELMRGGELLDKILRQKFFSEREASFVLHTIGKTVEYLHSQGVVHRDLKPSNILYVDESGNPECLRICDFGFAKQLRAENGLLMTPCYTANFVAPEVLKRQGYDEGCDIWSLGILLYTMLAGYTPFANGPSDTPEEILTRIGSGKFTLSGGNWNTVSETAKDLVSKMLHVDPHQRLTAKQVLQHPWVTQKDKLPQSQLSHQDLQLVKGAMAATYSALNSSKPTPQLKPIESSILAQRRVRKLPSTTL
Quantity: IC50

stdin: Look up IC50 for this compound: N=C(N)N/N=C\c1c(-c2ccc([N+](=O)[O-])cc2)nc2sc(Br)cn12
stdout: 1180 nM

---

Measured IC50 (Ribosomal protein S6 kinase alpha-3 (Homo sapiens, UniProt P51812))
A number alone suffices; assume µM.

{"Molecular string": "COc1cc([N+](=O)[O-])c(OC)cc1-c1nc2sccn2c1/C=N/NC(=N)N", "Unit name": "µM", "IC50": 3.58}
{"Molecular string": "Cc1nn2c(/C=N/NC(=N)N)c(-c3ccc(Cl)c([N+](=O)[O-])c3)nc2s1", "Unit name": "µM", "IC50": 94}
{"Molecular string": "CCc1cn2c(/C=N/NC(=N)N)c(-c3cc([N+](=O)[O-])c(Cl)cc3Cl)nc2s1", "Unit name": "µM", "IC50": 83}
{"Molecular string": "Cc1cn2c(/C=N/NC(=N)N)c(-c3cccc([N+](=O)[O-])c3)nc2s1", "Unit name": "µM", "IC50": 17.5}
{"Molecular string": "N=C(N)N/N=C\\c1c(-c2ccc(Br)c([N+](=O)[O-])c2)nc2sccn12", "Unit name": "µM", "IC50": 56.7}
{"Molecular string": "Cl.N=C(N)N/N=C/c1c(-c2ccc(Cl)c([N+](=O)[O-])c2)nc2sc(Cl)cn12", "Unit name": "µM", "IC50": 5.85}
{"Molecular string": "N=C(N)N/N=C/c1c(-c2ccc(Cl)cc2)nc2sc(Cl)cn12", "Unit name": "µM", "IC50": 14}

stdin: Look up IC50 for this molecule: Cc1cn2c(/C=N/NC3=NCCN3)c(-c3ccc(Cl)c([N+](=O)[O-])c3)nc2s1
stdout: 20.5

---

Biological target: Serine/threonine-protein kinase Chk1 (Homo sapiens)
Sequence (O14757 whole entry): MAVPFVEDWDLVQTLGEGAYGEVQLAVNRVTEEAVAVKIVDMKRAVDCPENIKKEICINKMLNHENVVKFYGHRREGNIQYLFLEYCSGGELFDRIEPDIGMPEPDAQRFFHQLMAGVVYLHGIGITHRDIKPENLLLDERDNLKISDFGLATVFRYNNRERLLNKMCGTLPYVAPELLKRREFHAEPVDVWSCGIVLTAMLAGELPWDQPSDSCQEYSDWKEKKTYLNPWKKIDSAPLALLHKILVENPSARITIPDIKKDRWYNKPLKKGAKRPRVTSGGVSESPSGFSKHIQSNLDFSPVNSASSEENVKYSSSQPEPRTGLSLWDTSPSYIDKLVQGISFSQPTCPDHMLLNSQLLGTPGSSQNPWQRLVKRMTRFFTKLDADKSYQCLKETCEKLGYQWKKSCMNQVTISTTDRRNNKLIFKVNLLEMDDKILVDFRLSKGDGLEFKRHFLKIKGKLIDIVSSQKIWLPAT
Quantity: pIC50
Units for pIC50: none; it is -log10 of a concentration expressed in mol/L.

stdin: Form entry - test system: Serine/threonine-protein kinase Chk1 (Homo sapiens); read-out: pIC50; compound: N=C(N)N/N=C\c1c(-c2ccc([N+](=O)[O-])cc2)nc2sc(Br)cn12
stdout: 4.86

---

Molecular target: Ribosomal protein S6 kinase alpha-3 (Homo sapiens, UniProt P51812)
Quantity: IC50

stdin: Form entry - test system: Ribosomal protein S6 kinase alpha-3 (Homo sapiens, UniProt P51812); read-out: IC50; compound: N=C(N)N/N=C\c1c(-c2ccc([N+](=O)[O-])cc2)nc2sc(Br)cn12
stdout: 0.607 µM
